- Tested on: U251 CNS
- assay-explanation: NCI tumour cell line growth inhibition, 48 h
property-label: TGI

Returns the measured TGI for the input compound. Input: Cc1cc2cc3c(Cl)c(CCCl)c(C)nc3cc2c(Cl)c1CCCl
60 µM

I'd like to know its TGI. The compound in question is Nc1cc(N)c2nc(-c3ccccc3)c(Sc3ccc(Cl)c(Cl)c3)nc2c1
> 100 µM

GET /values?readout=TGI&item= CC(C)=CCC/C(C)=C/CC/C(C)=C/CCN(C)CCO
12.7 µM

For CCOC(=O)c1sc2nc(SC)nc(N3CCCCC3)c2c1N , what is its reported TGI?
> 100 µM

Which TGI value is on record for COCCCN(Cc1cc(OC)c(OC)c(OC)c1)C(=S)Nc1cccc(Cl)c1 ?
> 100 µM

What value of measured TGI is listed for COc1ccc(NC(=S)N=Nc2c(O)[nH]c3ccccc23)cc1 ?
> 59.9 µM

----------
- System: COLO 205 colon
- assay-explanation: NCI tumour cell line growth inhibition, 48 h
property-label: TGI

Bench note: what TGI did CCOC(=O)c1sc2nc(SC)nc(N3CCCCC3)c2c1N show?
> 100 µM

Find the recorded TGI belonging to CC(C)c1cccc(C(C)C)c1NC(=S)N=Nc1cc(C(C)(C)C)c(O)c(C(C)(C)C)c1 and report it.
44.6 µM

Could you share which TGI value was measured for Cn1c2c(c3ccc(-c4ccn[nH]4)cc3c1=O)C(=O)c1ccccc1-2 ?
> 100 µM

Look at this molecule and give its reported TGI. COc1ccc(N2C(=O)CC(=O)N(C(=O)CCCCCCCCC(=O)N3C(=O)CC(=O)N(c4ccc(OC)cc4)C3=S)C2=S)cc1
> 100 µM

TGI for COC(=O)c1nn(-c2ccccc2)c(=O)cc1N=[N+]=[N-] ?
> 100 µM

TGI lookup needed for COC(=O)[C@@]12CCCC(=O)[C@@H]1[C@H]1CCC[C@H]12 , thanks.
> 100 µM

What value of TGI has been recorded for this entry: COc1ccc2nc3cccc([N+](=O)[O-])c3c(NCCN(C)C)c2c1
0.107 µM

Which TGI is listed for O=C(CCc1n[nH]c(=S)o1)Nc1cc(Cl)c(Cl)cc1Cl ?
> 100 µM

Query: TGI; subject: [Co+2].[O-]c1ccccc1C=NCc1ccccc1.[O-]c1ccccc1C=NCc1ccccc1
> 100 µM

Looking for the measured TGI of CCC1=C(C)c2cc3[n-]c(cc4nc(c(C=O)c5[n-]c(cc1n2)c(C)c5CC)C(C)=C4CC)c(C)c3CC.[Ni+2] , can you help?
> 100 µM

Need TGI, item Cc1c(Cl)ccc2c1NC(=O)C2(O)CC(=O)c1ccc2ccccc2c1 (configuration not stated)
> 100 µM

Look up TGI for this molecule: Cc1ccc(-c2cc3c(NC(=O)C4CC4)ncnc3o2)cc1
> 25 µM

Please report the recorded TGI for O=C1OC(c2cccc(C(F)(F)F)c2)c2ccc3ccccc3c21 (configuration not stated) .
> 100 µM

Data request, read-out TGI, for Cc1occc(=O)c1O
> 100 µM

// lookup TGI for CCN(CC)CCNc1ccc2ncn3c4ccccc4c(=O)c1c23
9.78 µM

Requested read-out: TGI. Entry: COc1cc(/C=C/c2ccc(/C=C/c3cc(OC)c(OC)c(OC)c3)cc2)cc(OC)c1OC
> 100 µM

Value lookup for TGI; key = N#CC(NCCc1ccccc1)c1ccccc1 (configuration not stated)
> 100 µM

Name the recorded TGI for O=S(=O)(O)c1cc(N=Nc2c(O)ccc3ccccc23)c2c(S(=O)(=O)O)cccc2c1 .
> 100 µM

# input molecule: CC1=c2c(oc3cc(O)c(Nc4c(C)cc(O)cc4O)c(C)c23)=CC(=O)C1=Nc1c(C)cc(O)cc1O ; wanted: its TGI
42.1 µM

So what does the record say about TGI for Cc1cc2c(c(C)c1O)C(C)(C)CN2C(=O)C(C)(C)C ?
> 100 µM

Which TGI value belongs to NC1CCC[C@H]1O (some centres not stated) ?
> 100 µM

Looking for the measured TGI of COc1ccc2c(c1)OCC1c3cc(O)ccc3OC21 (configuration not stated) , can you help?
> 100 µM

----------
- Tested on: CCRF-CEM leukemia
- assay-explanation: NCI tumour cell line growth inhibition, 48 h; in the data active means GI50 below about 0.43 µM; inactive means the rest
Your reply should match one of these outcome classes. 1 (yes) (active), 0 (no) (inactive)

Could you kindly confirm the outcome this assay logged for CN1C(=O)N(C)C2C1NN=c1s/c(=C\c3ccccc3F)c(=O)n12 (stereo not given) ?
1 (yes)

Any idea what this test logged for CCOc1ccc2nc(S/C(=C/C=C(C#N)C#N)c3ccc(Cl)cc3)sc2c1 ?
0 (no)

Recorded call for CC(=O)CC(=O)Nc1c(C)[c]([Hg][O]C(C)=O)c(C)[c]([Hg][O]C(C)=O)[c]1[Hg][O]C(C)=O ?
0 (no)

Per the records of this test, what outcome belongs to Cc1ccc(S(=O)(=O)NC2=NCCN2C(=S)SN2CCn3c2nsc3=S)cc1 ?
0 (no)

// return assay outcome for Oc1ccccc1N=Cc1c(O)ccc2ccccc12
0 (no)

----------
Hi there, I'd appreciate the recorded TGI for every entry that follows.
- Test system: M14 melanoma
- assay-explanation: NCI tumour cell line growth inhibition, 48 h

// lookup TGI for Oc1c(C(O)c2ccccn2)ccc2ccccc12 (stereo not given)
> 100 µM

Data request, read-out TGI, for O=C1Cc2c([nH]c3ccc([N+](=O)[O-])cc23)-c2ccccc2N1
> 30 µM

What value of measured TGI is listed for CCCOP1(=O)C=CC(Cl)=C(C)C1 (stereo not given) ?
> 61.3 µM

Form field: reported TGI of C[C@]12C=CC(=O)C=C1[C@@H](F)C[C@H]1[C@@H]3CC[C@](O)(C(=O)CO)[C@@]3(C)C[C@H](O)[C@@]12F
> 100 µM

Param item = Cc1nc2c([nH]c1C)c(O)cc1c3c(nc12)C(=O)CCC3 ; retrieve measured TGI.
> 100 µM

Which TGI value belongs to CCOC(=O)C(NC(=O)CC)(Nc1ccc(S(=O)(=O)Nc2ncccn2)cc1)C(F)(F)F (stereo not given) ?
> 100 µM

Using the record for COc1ccc2cc(C(=O)Nc3ccc(O)c(C(=O)O)c3)ccc2c1OC , report its TGI.
> 100 µM

I'd like to know its TGI. The molecule in question is CCCc1cc2c(cc1O)CC[C@@H]1[C@@H]2CC[C@]2(C)[C@@H](O)CC[C@@H]12
23 µM

Value lookup for TGI; key = CCOc1ccc(NC(=O)C(=O)C2C(=O)Nc3ccccc3S2=O)cc1 (stereo not given)
> 100 µM

Value lookup for TGI; key = O=S(=O)(O)c1cc(N=Nc2c(O)ccc3ccccc23)c2c(S(=O)(=O)O)cccc2c1
> 100 µM

----------
Would you kindly list TGI for each of these compounds?
- Test system: KM20L2 colon
- assay-explanation: NCI tumour cell line growth inhibition, 48 h

Recorded TGI for COS(=O)(=O)OCCC(NC(=O)OCc1ccccc1)C(=O)OCc1ccccc1 (centres undefined) , please?
> 100 µM

# TGI lookup, item N#Cc1cccc(N2C(=O)c3ccc(C(=O)c4ccc5c(c4)C(=O)N(c4cccc(C#N)c4)C5=O)cc3C2=O)c1
> 100 µM

Quick one: TGI for C=C(CN(C)C)C(=O)c1ccc(OC2OC(COC(C)=O)C(OC(C)=O)C(OC(C)=O)C2OC(C)=O)cc1 (centres undefined) ?
40.8 µM

Fill in: TGI of COc1ccc(/C(Cl)=C(\C=O)c2ccc(Cl)c(Cl)c2)cc1 is ___
24 µM

Would you mind telling me what TGI value was observed for CC1CCN(CCC(=O)CC(c2ccccc2)c2c(O)c3ccccc3oc2=O)CC1 (centres undefined) ?
> 100 µM

Please report the recorded TGI for C=CCCCC(C#N)(c1ccccc1)N1CCCC1 (centres undefined) .
> 100 µM

Need TGI, item O=C(Nc1nc2ncn(CCNCCn3cnc4nc(NC(=O)c5ccccc5)[nH]c(=O)c43)c2c(=O)[nH]1)c1ccccc1
> 100 µM

Suppose we examine the compound N#CC(/C(=N/N=C(N)N)C(=O)Nc1ccccc1[N+](=O)[O-])c1nc(-c2ccc([N+](=O)[O-])cc2)cs1 (centres undefined) ; what TGI value has been reported?
> 100 µM

Item Cc1ccccc1OCC(COC(=O)Nc1ccccc1)OC(=O)Nc1ccccc1 (centres undefined) has what recorded TGI?
> 100 µM

Look up TGI: [Co+2].[O-]c1ccccc1C=NCc1ccccc1.[O-]c1ccccc1C=NCc1ccccc1
> 100 µM

For the compound shown here, Cc1ccc(NC(=O)C(=O)C(C2C(C)CC(=O)C2CC(=O)O)[N+](=O)[O-])cc1 (centres undefined) , give the reported TGI.
> 100 µM

Query (compound): COc1ccc2nc(C)cc(NCCCCCCCCCNc3cc(C)nc4ccc(OC)cc34)c2c1 ; field requested: TGI
6.36 µM

What value of TGI has been recorded for this entry: CCCCCCCCCCCc1noc2c1C(=O)C(O)CC2 (centres undefined)
31.8 µM

GET /values?readout=TGI&item= Nc1nc(=S)c2c(ncn2CC(O)CO)[nH]1 (centres undefined)
> 100 µM

Any idea what TGI was measured for Cc1cccc(-c2nnc3s/c(=C\c4ccc5c(c4)OCO5)c(=O)n23)c1 ?
> 100 µM

# get_value(readout='TGI', item= CN(CC(=O)O)S(=O)(=O)c1ccc(F)cc1 )
> 100 µM

Suppose we examine the compound CCCOP1(=O)C=CC(Cl)=C(C)C1 (centres undefined) ; what TGI value has been reported?
> 100 µM

May I ask what TGI has been recorded for CC(=O)N(C)c1ccc2ncccc2c1[N+](=O)[O-] ?
> 100 µM

Any idea what TGI was measured for CN(C)CCc1ccc(Cl)cc1Cl ?
> 100 µM

Values compiled from PubChem BioAssay (NCI).
